- Test system: Danio rerio Tg(wt1b:EGFP) embryo, pronephros
- assay-details: glomerular separation, fold change vs DMSO control; higher = glomeruli further apart (abnormal)
- particulars: 25 µM; exposure: 24-48 hpf
metric: glomerular separation

molecule=CCCCC[C@H](O)/C=C/[C@@H]1[C@@H](C/C=C\CCCC(=O)O)[C@@H](O)C[C@H]1O metric="glomerular separation" reported_measurement=0.881
molecule=COC(c1ccccc1)(c1ccccc1)[C@H](Oc1nc(C)cc(C)n1)C(=O)O metric="glomerular separation" reported_measurement=0.883
molecule=Cn1cnc2c1c(=O)[nH]c(=O)n2C metric="glomerular separation" reported_measurement=0.91
molecule="CCN(CC)CCNC(=O)c1cc(Br)c(N)cc1OC [Bromopride]" metric="glomerular separation" reported_measurement=0.903

----------
Reported glomerular width values for a set of molecules
- System: Danio rerio Tg(wt1b:EGFP) embryo, pronephros
- assay-details: glomerular width (mean of left and right), fold change vs DMSO control; higher = wider glomerulus
- particulars: 25 µM; exposure: 24-48 hpf
Where a name gives a salt, the structure may show the parent alone.
metric: glomerular width

molecule="CN1CC2c3ccccc3Oc3ccc(Cl)cc3C2C1 (stereo not given) [Asenapine maleate]" reported_measurement=0.991
molecule="C[C@H](N[C@@H](CCc1ccccc1)C(=O)O)C(=O)N1CCC[C@H]1C(=O)O [Enalaprilat dihydrate]" reported_measurement=1
molecule=O=C(O)COC(=O)Cc1ccccc1Nc1c(Cl)cccc1Cl reported_measurement=1
molecule="Cc1ccccc1N1C(=O)c2cc(S(N)(=O)=O)c(Cl)cc2NC1C (stereo not given)" reported_measurement=1
molecule="OCCOCCN1CCN(C(c2ccccc2)c2ccc(Cl)cc2)CC1 (stereo not given) [Hydroxyzine dihydrochloride]" reported_measurement=1.02
molecule=O=C1CN(/N=C/c2ccc([N+](=O)[O-])o2)C(=O)N1 reported_measurement=1.04
molecule="OC(CCCN1CCCCC1)(c1ccccc1)c1ccccc1 [Diphenidol hydrochloride]" reported_measurement=1.1
molecule="Cc1nnc(SCC2=C(C(=O)O)N3C(=O)[C@@H](NC(=O)Cn4cnnn4)[C@H]3SC2)s1 [Cefazolin sodium salt]" reported_measurement=1.07
molecule="CC(C)NCC(O)COc1cccc2[nH]ccc12 (stereo not given)" reported_measurement=0.901
molecule="C=CCN1CCCC1CNC(=O)c1cc2nn[nH]c2cc1OC (stereo not given) [Alizapride hydrochloride]" reported_measurement=0.924

----------
- Tested on: Danio rerio Tg(wt1b:EGFP) embryo, pronephros
- assay-details: fraction of imaged embryos annotated as normal kidney; higher = less nephrotoxic; extreme values may be limits of the assay
- particulars: 25 µM; exposure: 24-48 hpf
Where a name gives a salt, the structure may show the parent alone.
metric: fraction of imaged embryos annotated as normal kidney

molecule="CN[C@@H]1[C@@H](O)[C@@H](O[C@@H]2[C@@H](O)[C@H](O[C@H]3OC(CN)=CC[C@H]3N)[C@@H](N)C[C@H]2N)OC[C@]1(C)O [Sisomicin sulfate]" reported_measurement=0.833
molecule="O=C(Oc1cccc2cccnc12)c1ccccc1 [Benzoxiquine]" reported_measurement=0.0833
molecule="CC(C)(C)NC[C@H](O)c1ccc(O)c(CO)c1 [Levalbuterol hydrochloride]" reported_measurement=0.917
molecule="C=C[C@H]1CN2CC[C@H]1C[C@@H]2[C@@H](O)c1ccnc2ccc(OC)cc12 [Quinidine hydrochloride monohydrate]" reported_measurement=0.75
molecule="CCN(CC)CCOC(=O)C1(C2CCCCC2)CCCCC1 [Dicyclomine hydrochloride]" reported_measurement=0.727
molecule="CC(CN(C)C)CN1c2ccccc2CCc2ccccc21 (stereo not drawn) [Trimipramine maleate salt]" reported_measurement=0.833
molecule="Cn1ccnc1S [Methimazole]" reported_measurement=0.818
molecule="CC1(C)[C@@H](OC(=O)CCC(=O)O)CC[C@]2(C)[C@H]3C(=O)C=C4[C@@H]5C[C@@](C)(C(=O)O)CC[C@]5(C)CC[C@@]4(C)[C@]3(C)CC[C@@H]12 [Carbenoxolone disodium salt]" reported_measurement=0.667
